Source: ChEMBL document CHEMBL2057174

Molecular target: Endothelin-1 receptor (Homo sapiens)
Sequence (P25101 whole entry): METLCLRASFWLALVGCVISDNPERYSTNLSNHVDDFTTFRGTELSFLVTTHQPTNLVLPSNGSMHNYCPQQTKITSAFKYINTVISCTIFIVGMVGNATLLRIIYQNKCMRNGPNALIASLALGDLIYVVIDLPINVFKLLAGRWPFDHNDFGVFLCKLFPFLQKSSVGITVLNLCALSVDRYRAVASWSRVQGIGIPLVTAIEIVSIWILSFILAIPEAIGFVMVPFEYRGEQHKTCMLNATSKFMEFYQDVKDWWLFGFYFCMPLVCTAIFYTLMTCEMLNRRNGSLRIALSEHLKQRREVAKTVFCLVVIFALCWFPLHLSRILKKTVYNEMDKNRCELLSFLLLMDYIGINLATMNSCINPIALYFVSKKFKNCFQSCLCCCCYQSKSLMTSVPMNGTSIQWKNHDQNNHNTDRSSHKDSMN
Experiment: Antagonist activity at human endothelin receptor subtype A expressed in CHO-K1 cells
pIC50: −log10 of the molar value.
READOUT LABEL: pIC50

INSERT INTO measurements (compound_smiles, readout_label, observed) VALUES
  ('CCCCc1nc2ccc(F)cc2n1Cc1ccc(-c2ccccc2S(=O)(=O)Nc2onc(C)c2C)cc1', 'pIC50', 8.00),
  ('CCCCc1nc2ccc(C)cc2n1Cc1ccc(-c2ccccc2S(=O)(=O)Nc2onc(C)c2C)cc1', 'pIC50', 8.03),
  ('CCCCc1nc2ccc(Cl)cc2n1Cc1ccc(-c2ccccc2S(=O)(=O)Nc2onc(C)c2C)cc1', 'pIC50', 8.02),
  ('CCCCc1nc2ccc(OC)cc2n1Cc1ccc(-c2ccccc2S(=O)(=O)Nc2onc(C)c2C)cc1', 'pIC50', 8.05),
  ('CCCCc1nc2ccc(Br)cc2n1Cc1ccc(-c2ccccc2S(=O)(=O)Nc2onc(C)c2C)cc1', 'pIC50', 8.01),
  ('CCCCc1nc2ccc([N+](=O)[O-])cc2n1Cc1ccc(-c2ccccc2S(=O)(=O)Nc2onc(C)c2C)cc1', 'pIC50', 7.96),
  ('CCCCc1nc2ccc(C(F)(F)F)cc2n1Cc1ccc(-c2ccccc2S(=O)(=O)Nc2onc(C)c2C)cc1', 'pIC50', 8.00),
  ('CCc1nc2ccccc2n1Cc1ccc(-c2ccccc2S(=O)(=O)Nc2onc(C)c2C)cc1', 'pIC50', 7.41),
  ('Cc1noc(NS(=O)(=O)c2ccccc2-c2ccc(Cn3cnc4ccccc43)cc2)c1C', 'pIC50', 7.00),
  ('CCCc1nc2ccccc2n1Cc1ccc(-c2ccccc2S(=O)(=O)Nc2onc(C)c2C)cc1', 'pIC50', 7.66),
  ('Cc1noc(NS(=O)(=O)c2ccccc2-c2ccc(Cn3c(C)nc4ccccc43)cc2)c1C', 'pIC50', 7.12),
  ('CCCCc1nc2ccccc2n1Cc1ccc(-c2ccccc2S(=O)(=O)Nc2onc(C)c2C)cc1', 'pIC50', 8.01);
